- target: Microphthalmia-associated transcription factor (Homo sapiens)
- assay_name: MITF inhibitors, primary screen, biochemical, AlphaScreen, human (AID 1259374);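 note: 0% = vehicle wells with protein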
- measurement_context: AlphaScreen MITF homodimerization, bead proximity signal; at 2.6 µM
Screen size: about 650,000 compounds; about 5,900 (0.91%) were called active. Cut-off read from the data, not from the text of the source: active = inhibition above about 50%; inactive = the rest. The entries come from a sample that favours actives as a whole.
A correct response names exactly one class from active, inactive

Solved entries:
CCN1CCc2nc3ccccc3c(C(=O)O)c2C1: active
CC1CCCC(C)N1C(=O)CN1C2CCC1CC(O)(c1ccccn1)C2 (centres undefined): active
CCCCn1c(C)c(C(=O)OCC)c2cc(OC(=O)COc3ccccc3)c3ccccc3c21: inactive

Next up:
Req: Could you please tell me the result logged for COc1ccc(CNCCc2c[nH]c3ccccc23)cc1OC in this assay?
Resp: inactive

====

- target: Microphthalmia-associated transcription factor (Homo sapiens) (UniProt O75030)
- Sequence (O75030 whole entry, looked up): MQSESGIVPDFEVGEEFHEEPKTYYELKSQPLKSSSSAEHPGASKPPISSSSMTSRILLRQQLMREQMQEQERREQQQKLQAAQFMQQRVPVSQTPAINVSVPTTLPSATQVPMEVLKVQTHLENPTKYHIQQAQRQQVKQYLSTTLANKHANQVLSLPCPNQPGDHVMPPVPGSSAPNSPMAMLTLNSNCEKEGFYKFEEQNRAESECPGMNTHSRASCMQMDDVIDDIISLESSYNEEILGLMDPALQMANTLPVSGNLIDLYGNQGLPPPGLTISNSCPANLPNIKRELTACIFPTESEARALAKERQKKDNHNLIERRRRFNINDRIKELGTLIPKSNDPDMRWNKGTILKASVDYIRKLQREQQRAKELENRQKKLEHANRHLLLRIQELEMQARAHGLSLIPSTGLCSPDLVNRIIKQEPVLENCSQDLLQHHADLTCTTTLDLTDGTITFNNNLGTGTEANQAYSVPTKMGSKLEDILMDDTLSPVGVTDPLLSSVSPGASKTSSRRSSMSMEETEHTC
- assay_name: MITF inhibitors, primary screen, biochemical, AlphaScreen, human (AID 1259374);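 note: 0% = vehicle wells with protein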
- measurement_context: AlphaScreen MITF homodimerization, bead proximity signal; at 2.6 µM
Out of some 650,000 compounds screened, about 5,900 (0.91%) were called active. No stated cut-off is given here; in the data, active means inhibition above about 50%; inactive means the rest. Only a selection was taken, and actives are over-represented in it overall.
Use one of these outcomes when replying: Yes (active), No (inactive)

Here are 4 compounds together with their reported answers.
CCC(CC)N1CCN(Cc2ccc(F)cc2)CC1: Yes
CCOC(=O)C1C2NC(=S)N(c3ccc(CC)cc3)C1(C)Oc1c(OC)cccc12 (configuration not stated): No
Clc1ccc(CN2CCN(Cc3ccc(Cl)cc3)CC2)cc1: No
C=CCN1C(=O)/C(=C\c2cccn2-c2cccc([N+](=O)[O-])c2)C(=O)NC1=S: No

Req: For this compound, state the assay outcome: CCOC(=O)C1C2NC(=S)NC1(C)Oc1cc(OC)ccc12 (configuration not stated)
Resp: No

Req: Status in this test for COc1ccccc1N1C(=O)NC(=O)/C(=C\c2ccc(Cl)cc2Cl)C1=O ?
Resp: No

Req: Could you please tell me the result logged for CCC(C)N1CCN(Cc2ccc(SC)cc2)CC1 (configuration not stated) in this assay?
Resp: Yes

====

- target: Microphthalmia-associated transcription factor (Homo sapiens)
- assay_name: MITF inhibitors, primary screen, biochemical, AlphaScreen, human (AID 1259374);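 note: 0% = vehicle wells with protein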
- measurement_context: AlphaScreen MITF homodimerization, bead proximity signal; at 2.6 µM; hits give high values
The whole screen tested about 650,000 compounds, of which about 5,900 (0.91%) were called active. What follows is part of a selection rich in actives, with near analogues and random picks from the rest.
measured_attribute: inhibition (%)
The response must be a number in % with no trailing unit.

CC(c1ccccc1F)n1cc(C(=O)NC2CC2)nn1 (stereo unspecified): -9.15
CS(=O)(=O)Nc1ccc(C#N)c(Cl)c1: -2.59
O=[N+]([O-])c1ccccc1C[N+]12CCC(CC1)C(O)C2 (stereo unspecified): 8.77
O=[N+]([O-])c1ccccc1CN1CCN(Cc2cccc(F)c2)CC1: 51.4
O=[N+]([O-])c1ccc(O)c(CN2CCN(c3ccccc3)CC2)c1: 9.43

Alright, here's another molecule for you.
Req: # inhibition lookup, item Cc1ccc(CN2CCN(Cc3ccccc3[N+](=O)[O-])CC2)cc1
Resp: 59.3

====

Items are presented alongside their recorded inhibition.
- target: Microphthalmia-associated transcription factor (Homo sapiens) (UniProt O75030)
- assay_name: MITF inhibitors, primary screen, biochemical, AlphaScreen, human (AID 1259374);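 note: 0% = vehicle wells with protein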
- measurement_context: AlphaScreen MITF homodimerization, bead proximity signal; at 2.6 µM; hits give high values
Out of some 650,000 compounds screened, about 5,900 (0.91%) were called active. The list comes from a sample in which actives are over-represented; it also holds close analogues and randomly drawn compounds.
// note: answer is a bare numeric in %

COc1ccccc1N1CCN(Cc2cccc(O)c2)CC1: 24.7

Req: Please give the measured inhibition for this compound: CCC(C)N1CCN(Cc2cccc(OC)c2)CC1 (stereo not given)
Resp: 63.5

Req: Which inhibition is reported for this compound? O=C1NC(=S)NC(=O)C1=Cc1ccc(OCc2ccccc2)c(C(=O)O)c1
Resp: 18.7

Req: Form field: reported inhibition of COc1ccccc1CN1CCN(Cc2ccc(Br)cc2)CC1
Resp: 77.5

Attribution: PubChem BioAssay AID1259374
